- experiment_description: Acute toxicity in mice
- Assay type: in vivo
- experimental_context: mouse, in vivo; oral, 7 days, 5 animals, Litchfield-Wilcoxon's method
recorded_metric: LD50 at 168 h

Query block: # query: LD50 at 168 h of entry c1ccc2c(c1)Sc1ccccc1N2CCC12CCCN1CCC2 [Example 2]
Result block: < 1000 mg/kg

Query block: What about this compound? c1ccc2c(c1)Sc1ccccc1N2CC12CCCN1CCC2 [Example 1]
Result block: > 1000 mg/kg

Query block: What about this compound? CN(C)S(=O)(=O)c1ccc2c(c1)N(CC13CCCN1CCC3)c1ccccc1S2 [Example 3]
Result block: > 1000 mg/kg

Query block: What about this compound? C[Si](C)(C)c1cccc2c1N(CC13CCCN1CCC3)c1ccccc1S2 [Example 4]
Result block: > 1000 mg/kg

Query block: What about this compound? O=C1Nc2cccnc2N(C(=O)C23CCCN2CCC3)c2ccccc21 [Example 5]
Result block: > 1000 mg/kg
